Assay: self-splicing fitness, log relative to wild type (ln ratio); higher = more splicing; Tetrahymena group I intron in knt gene, E. coli kanamycin selection, DiMSum; sequences stand for … in CUCUCU…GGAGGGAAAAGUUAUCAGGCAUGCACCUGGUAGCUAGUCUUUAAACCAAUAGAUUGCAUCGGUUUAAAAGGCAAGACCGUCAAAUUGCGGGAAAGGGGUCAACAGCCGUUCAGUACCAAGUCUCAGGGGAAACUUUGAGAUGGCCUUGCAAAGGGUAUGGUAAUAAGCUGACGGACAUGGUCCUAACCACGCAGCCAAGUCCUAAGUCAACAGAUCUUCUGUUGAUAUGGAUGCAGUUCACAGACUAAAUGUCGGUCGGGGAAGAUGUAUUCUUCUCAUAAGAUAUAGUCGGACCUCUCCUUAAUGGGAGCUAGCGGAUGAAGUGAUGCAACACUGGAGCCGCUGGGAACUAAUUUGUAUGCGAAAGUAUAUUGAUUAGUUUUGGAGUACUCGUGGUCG;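 note: selection with 25 µg/mL kanamycin versus none on LB agar overnight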
Conditions: 37 °C
Recorded self-splicing fitness (ln), one value per entry.

{"sequence record": "CAAGAGCAAUAUUACGUAUA", "self-splicing fitness (ln)": -1.92}
{"sequence record": "UUAUAGCAAUAUUACGCGCG", "self-splicing fitness (ln)": -0.475}
{"sequence record": "CAGAAGCAAUAUUACGUCCU", "self-splicing fitness (ln)": -0.858}
{"sequence record": "CCACAGCAAUAUUACGGGAA", "self-splicing fitness (ln)": -3.01}
{"sequence record": "AUGCAGCAAUAUUACGGUAU", "self-splicing fitness (ln)": -1.42}
{"sequence record": "UAUCAGCAAUAUUACGUUGC", "self-splicing fitness (ln)": -2.37}
{"sequence record": "UUGUAGCAAUAUUACGGUGA", "self-splicing fitness (ln)": -0.318}
{"sequence record": "CCAUAGCAAUAUUACGCUAA", "self-splicing fitness (ln)": -2.75}
{"sequence record": "AGUAAGCAAUAUUACGCUUU", "self-splicing fitness (ln)": -2.36}
{"sequence record": "UUGCAGCAAUAUUACGCGUC", "self-splicing fitness (ln)": -1.61}
{"sequence record": "GACGAGCAAUAUUACGAUCA", "self-splicing fitness (ln)": -0.86}
{"sequence record": "GGCGAGCAAUAUUACGUCUU", "self-splicing fitness (ln)": -0.197}
{"sequence record": "UAGUAGCAAUAUUACGGCGG", "self-splicing fitness (ln)": -0.639}
{"sequence record": "AUAGAGCAAUAUUACGGACG", "self-splicing fitness (ln)": -0.981}
{"sequence record": "GCAUAGCAAUAUUACGGCAA", "self-splicing fitness (ln)": -0.271}
{"sequence record": "UUGUAGCAAUAUUACGCCGA", "self-splicing fitness (ln)": -0.628}
{"sequence record": "CGCCAGCAAUAUUACGUCAA", "self-splicing fitness (ln)": -2.32}
{"sequence record": "ACUGAGCAAUAUUACGUAUG", "self-splicing fitness (ln)": -1.08}
{"sequence record": "CGAGAGCAAUAUUACGCUGC", "self-splicing fitness (ln)": -2.48}
{"sequence record": "AACAAGCAAUAUUACGGUAG", "self-splicing fitness (ln)": -2.22}
{"sequence record": "CGGAAGCAAUAUUACGGUGU", "self-splicing fitness (ln)": -2.1}
{"sequence record": "GAGUAGCAAUAUUACGAUAA", "self-splicing fitness (ln)": -1.18}
{"sequence record": "CCCUAGCAAUAUUACGAGUU", "self-splicing fitness (ln)": -3.11}
{"sequence record": "UGCAAGCAAUAUUACGGAUU", "self-splicing fitness (ln)": -1.84}
{"sequence record": "CGGUAGCAAUAUUACGGCGC", "self-splicing fitness (ln)": -1.95}
{"sequence record": "AUUGAGCAAUAUUACGAAAG", "self-splicing fitness (ln)": -1.72}
{"sequence record": "UCAAAGCAAUAUUACGCGGA", "self-splicing fitness (ln)": -1.37}
{"sequence record": "AUCAAGCAAUAUUACGCCCA", "self-splicing fitness (ln)": 0.0648}
{"sequence record": "CAGAAGCAAUAUUACGUGGC", "self-splicing fitness (ln)": -2.15}
{"sequence record": "UUACAGCAAUAUUACGCGUA", "self-splicing fitness (ln)": -1.94}
{"sequence record": "GCACAGCAAUAUUACGAUCA", "self-splicing fitness (ln)": -0.209}
{"sequence record": "GUCAAGCAAUAUUACGUUGG", "self-splicing fitness (ln)": -3.51}
{"sequence record": "AGUAAGCAAUAUUACGACAG", "self-splicing fitness (ln)": -1.94}
{"sequence record": "GCCGAGCAAUAUUACGGAAG", "self-splicing fitness (ln)": -0.897}
